- Organism: Rattus norvegicus
- Method: Open TG-GATES - Regimen: Single
- Assay type: toxicity, organism-based, Sprague-Dawley
- Set-up: regimen Single, gender Male, age 6 weeks
- Measurement Conditions: in vivo, po, 1000 mg/kg, 6 h, tissue Plasma, route gavage, dose level High
Measurement Kind: K (meq/L)
Reply numerically in meq/L, unit not repeated.

Known K results, listed for orientation:
Smiles Entry | Value Measured
O=C(OC[C@H]1O[C@@H](OC(=O)c2cc(O)c(O)c(OC(=O)c3cc(O)c(O)c(O)c3)c2)[C@H](OC(=O)c2cc(O)c(O)c(OC(=O)c3cc(O)c(O)c(O)c3)c2)[C@@H](OC(=O)c2cc(O)c(O)c(OC(=O)c3cc(O)c(O)c(O)c3)c2)[C@@H]1OC(=O)c1cc(O)c(O)c(OC(=O)c2cc(O)c(O)c(O)c2)c1)c1cc(O)c(O)c(OC(=O)c2cc(O)c(O)c(O)c2)c1 | 5
COC(=O)C1=C(C)NC(C)=C(C(=O)OC)C1c1ccccc1[N+](=O)[O-] | 5

In: Any idea what K was measured for Cc1nnc2n1-c1ccc(Cl)cc1C(c1ccccc1Cl)=NC2 ?
Out: 4.5

In: Any idea what K was measured for CNC(=C[N+](=O)[O-])NCCSCc1ccc(CN(C)C)o1 ?
Out: 3.6

In: Any idea what K was measured for CN/C(=N/CCSCc1nc[nH]c1C)NC#N ?
Out: 4

* * *

- Species on record: Rattus norvegicus
- Method: Open TG-GATES - Regimen: Single
- Assay type: toxicity, organism-based, Sprague-Dawley
- Set-up: regimen Single, gender Male, age 6 weeks
- Measurement Conditions: in vivo, po, 0 mg/kg, 24 h, tissue Blood, route gavage, dose level Control
Measurement Kind: Plat (x10_4/uL)
Reply numerically in x10_4/uL, unit not repeated.

Known Plat results, listed for orientation:
Smiles Entry | Unit Spec | Plat
CC(C)NNC(=O)c1ccncc1 | x10_4/uL | 124
Nc1c2c(nc3ccccc13)CCCC2 | x10_4/uL | 126.5
CN/C(=N/CCSCc1nc[nH]c1C)NC#N | x10_4/uL | 130.4

In: Any idea what Plat was measured for O=C(OC[C@H]1O[C@@H](OC(=O)c2cc(O)c(O)c(OC(=O)c3cc(O)c(O)c(O)c3)c2)[C@H](OC(=O)c2cc(O)c(O)c(OC(=O)c3cc(O)c(O)c(O)c3)c2)[C@@H](OC(=O)c2cc(O)c(O)c(OC(=O)c3cc(O)c(O)c(O)c3)c2)[C@@H]1OC(=O)c1cc(O)c(O)c(OC(=O)c2cc(O)c(O)c(O)c2)c1)c1cc(O)c(O)c(OC(=O)c2cc(O)c(O)c(O)c2)c1 ?
Out: 110.9

* * *

- Species on record: Rattus norvegicus
- Method: Open TG-GATES - Regimen: Daily Repeat
- Type: toxicity, organism-based, Sprague-Dawley
- Design: regimen Daily Repeat, gender Male, age 6 weeks
- Measurement Conditions: in vivo, po, 0 mg/kg, […], tissue Blood, route gavage, dose level Control, time 28 day
Decide by Lym: equal to or exceeding 80% means class 1, less means class 0.

Past entries and their recorded results:
Compound | Group Label
CCOc1ccc(NC(C)=O)cc1 | class 0
CN(C)CCC(c1ccc(Cl)cc1)c1ccccn1 (stereo not drawn) | class 0
O=C(OC[C@H]1O[C@@H](OC(=O)c2cc(O)c(O)c(OC(=O)c3cc(O)c(O)c(O)c3)c2)[C@H](OC(=O)c2cc(O)c(O)c(OC(=O)c3cc(O)c(O)c(O)c3)c2)[C@@H](OC(=O)c2cc(O)c(O)c(OC(=O)c3cc(O)c(O)c(O)c3)c2)[C@@H]1OC(=O)c1cc(O)c(O)c(OC(=O)c2cc(O)c(O)c(O)c2)c1)c1cc(O)c(O)c(OC(=O)c2cc(O)c(O)c(O)c2)c1 | class 1
Nc1c2c(nc3ccccc13)CCCC2 | class 1
CN1C(=O)CCS(=O)(=O)C1c1ccc(Cl)cc1 (stereo not drawn) | class 0

Moving on to the next compound.
In: Lym >= 80% for CCCc1cc(=O)[nH]c(=S)[nH]1 ?
Out: class 1

* * *

Some molecules, each annotated with its measured IP.
- Organism: Rattus norvegicus
- Method: Open TG-GATES - Regimen: Daily Repeat
- Format: toxicity, organism-based, Sprague-Dawley
- Set-up: regimen Daily Repeat, gender Male, age 6 weeks
- Measurement Conditions: in vivo, po, 0 mg/kg, 72 h, tissue Plasma, route gavage, dose level Control, time 3 day
Reply numerically in mg/dL, unit not repeated.

Known IP results, listed for orientation:
Molecule | Unit Spec | Value Measured
Brc1ccccc1 | mg/dL | 7.6
CCOc1ccc(NC(C)=O)cc1 | mg/dL | 7.2
Nc1c2c(nc3ccccc13)CCCC2 | mg/dL | 7.4
NC1=NC(=O)C(c2ccccc2)O1 (stereo not drawn) | mg/dL | 7.6
CCCc1cc(=O)[nH]c(=S)[nH]1 | mg/dL | 8.7

In: Any idea what IP was measured for CN(C)CCC(c1ccc(Cl)cc1)c1ccccn1 (stereo not drawn) ?
Out: 7.7

In: Any idea what IP was measured for COC(=O)C1=C(C)NC(C)=C(C(=O)OC)C1c1ccccc1[N+](=O)[O-] ?
Out: 7.7

In: Any idea what IP was measured for O=C(OC[C@H]1O[C@@H](OC(=O)c2cc(O)c(O)c(OC(=O)c3cc(O)c(O)c(O)c3)c2)[C@H](OC(=O)c2cc(O)c(O)c(OC(=O)c3cc(O)c(O)c(O)c3)c2)[C@@H](OC(=O)c2cc(O)c(O)c(OC(=O)c3cc(O)c(O)c(O)c3)c2)[C@@H]1OC(=O)c1cc(O)c(O)c(OC(=O)c2cc(O)c(O)c(O)c2)c1)c1cc(O)c(O)c(OC(=O)c2cc(O)c(O)c(O)c2)c1 ?
Out: 8

* * *

- Species: Rattus norvegicus
- Method: Open TG-GATES - Regimen: Single
- Format: toxicity, organism-based, Sprague-Dawley
- Parameters: regimen Single, gender Male, age 6 weeks
- Measurement Conditions: in vivo, po, 300 mg/kg, 9 h, tissue Blood, route gavage, dose level Middle
Some compounds, each annotated with its measured Hb.
Reply numerically in g/dL, unit not repeated.

Known Hb results, listed for orientation:
Smiles Entry | Unit Spec | Value Measured
O=C(OC[C@H]1O[C@@H](OC(=O)c2cc(O)c(O)c(OC(=O)c3cc(O)c(O)c(O)c3)c2)[C@H](OC(=O)c2cc(O)c(O)c(OC(=O)c3cc(O)c(O)c(O)c3)c2)[C@@H](OC(=O)c2cc(O)c(O)c(OC(=O)c3cc(O)c(O)c(O)c3)c2)[C@@H]1OC(=O)c1cc(O)c(O)c(OC(=O)c2cc(O)c(O)c(O)c2)c1)c1cc(O)c(O)c(OC(=O)c2cc(O)c(O)c(O)c2)c1 | g/dL | 13
CNC(=C[N+](=O)[O-])NCCSCc1ccc(CN(C)C)o1 | g/dL | 13.3
CN/C(=N/CCSCc1nc[nH]c1C)NC#N | g/dL | 12.6

In: Any idea what Hb was measured for COC(=O)C1=C(C)NC(C)=C(C(=O)OC)C1c1ccccc1[N+](=O)[O-] ?
Out: 13.1

In: Any idea what Hb was measured for Cc1nnc2n1-c1ccc(Cl)cc1C(c1ccccc1Cl)=NC2 ?
Out: 13.5

* * *

- Organism: Rattus norvegicus
- Method: Open TG-GATES - Regimen: Daily Repeat
- Type: toxicity, organism-based, Sprague-Dawley
- Set-up: regimen Daily Repeat, gender Male, age 6 weeks
- Measurement Conditions: in vivo, po, 100 mg/kg, 72 h, tissue Blood, route gavage, dose level Low, time 3 day
Measurement Kind: Neu
Put your answer as a value accompanied by its unit after it.

Smiles Entry | Neu
COC(=O)C1=C(C)NC(C)=C(C(=O)OC)C1c1ccccc1[N+](=O)[O-] | 23.6%

In: Any idea what Neu was measured for Cc1nnc2n1-c1ccc(Cl)cc1C(c1ccccc1Cl)=NC2 ?
Out: 20%

In: Any idea what Neu was measured for CN/C(=N/CCSCc1nc[nH]c1C)NC#N ?
Out: 17.4%

In: Any idea what Neu was measured for CNC(=C[N+](=O)[O-])NCCSCc1ccc(CN(C)C)o1 ?
Out: 15.8%

In: Any idea what Neu was measured for O=C(OC[C@H]1O[C@@H](OC(=O)c2cc(O)c(O)c(OC(=O)c3cc(O)c(O)c(O)c3)c2)[C@H](OC(=O)c2cc(O)c(O)c(OC(=O)c3cc(O)c(O)c(O)c3)c2)[C@@H](OC(=O)c2cc(O)c(O)c(OC(=O)c3cc(O)c(O)c(O)c3)c2)[C@@H]1OC(=O)c1cc(O)c(O)c(OC(=O)c2cc(O)c(O)c(O)c2)c1)c1cc(O)c(O)c(OC(=O)c2cc(O)c(O)c(O)c2)c1 ?
Out: 14.4%

* * *

Some molecules, each annotated with its measured IP.
- Species: Rattus norvegicus
- Method: Open TG-GATES - Regimen: Single
- Format: toxicity, organism-based, Sprague-Dawley
- Set-up: regimen Single, gender Male, age 6 weeks
- Measurement Conditions: in vivo, po, 1000 mg/kg, 3 h, tissue Plasma, route gavage, dose level High
Reply numerically in mg/dL, unit not repeated.

Known IP results, listed for orientation:
Molecule | IP, mg/dL
COC(=O)C1=C(C)NC(C)=C(C(=O)OC)C1c1ccccc1[N+](=O)[O-] [NIFEDIPINE] | 9.2
Cc1nnc2n1-c1ccc(Cl)cc1C(c1ccccc1Cl)=NC2 [TRIAZOLAM] | 10.4
O=C(OC[C@H]1O[C@@H](OC(=O)c2cc(O)c(O)c(OC(=O)c3cc(O)c(O)c(O)c3)c2)[C@H](OC(=O)c2cc(O)c(O)c(OC(=O)c3cc(O)c(O)c(O)c3)c2)[C@@H](OC(=O)c2cc(O)c(O)c(OC(=O)c3cc(O)c(O)c(O)c3)c2)[C@@H]1OC(=O)c1cc(O)c(O)c(OC(=O)c2cc(O)c(O)c(O)c2)c1)c1cc(O)c(O)c(OC(=O)c2cc(O)c(O)c(O)c2)c1 [TANNIC ACID] | 10.2
CN/C(=N/CCSCc1nc[nH]c1C)NC#N [CIMETIDINE] | 8.3

In: Any idea what IP was measured for CNC(=C[N+](=O)[O-])NCCSCc1ccc(CN(C)C)o1 [RANITIDINE] ?
Out: 8.2
